Target: ETB receptor (Sus scrofa)
Construct: ETB receptors of porcine cerebellum membrane suspension used in the present experiments; from tissue; host or cells: porcine cerebellum membrane fraction
Sequence (P35463 27-443): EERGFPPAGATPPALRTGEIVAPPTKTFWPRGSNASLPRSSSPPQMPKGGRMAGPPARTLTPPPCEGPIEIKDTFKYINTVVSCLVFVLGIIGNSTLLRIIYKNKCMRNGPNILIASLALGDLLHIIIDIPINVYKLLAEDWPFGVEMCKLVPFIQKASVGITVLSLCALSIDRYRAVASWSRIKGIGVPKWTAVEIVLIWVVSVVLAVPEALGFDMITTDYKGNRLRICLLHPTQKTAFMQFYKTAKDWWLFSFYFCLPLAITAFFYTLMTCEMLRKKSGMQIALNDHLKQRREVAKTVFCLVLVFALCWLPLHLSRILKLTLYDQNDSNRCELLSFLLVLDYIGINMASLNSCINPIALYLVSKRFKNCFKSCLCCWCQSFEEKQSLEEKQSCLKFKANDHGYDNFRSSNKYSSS
Assay: Endothelin binding inhibition test (^125I-endothelin-1, porcine cerebellum membrane suspension)
Conditions: 1.1 µM of the test compound, triplicate
Test Readout: inhibition at 1.1 µM (%)
# number only, unit % dropped from output

Can you share its inhibition at 1.1 µM? I mean this compound: CCCC[C@@H](NC(=O)[C@@H](Cc1cn(C(=O)OCC)c2ccccc12)NC(=O)[C@H](CC(C)C)NC(=O)Nc1ccccc1Cl)C(=O)O
97
